molecular target: native rod photoreceptor CNG channels; test: Inside-out patches excised from Xenopus rod outer segments; format: biochemical, Xenopus laevis; settings: read-out: K1/2 cGMP (Hill fit); representative control patch, t0 (Fig 11A)
measured-attribute: EC50 (µM)
// units = µM; emit number, no label

Assign EC50 to the following record: Nc1nc2c(ncn2[C@@H]2O[C@@H]3COP(=O)(O)O[C@H]3[C@H]2O)c(=O)[nH]1 [cGMP, cyclic guanosine monophosphate]
19.3

----------
Target: heteromeric CNGA3 + CNGB3 channels (Homo sapiens, UniProt Q16281+Q9NQW8)
Sequence (Q16281 1-694): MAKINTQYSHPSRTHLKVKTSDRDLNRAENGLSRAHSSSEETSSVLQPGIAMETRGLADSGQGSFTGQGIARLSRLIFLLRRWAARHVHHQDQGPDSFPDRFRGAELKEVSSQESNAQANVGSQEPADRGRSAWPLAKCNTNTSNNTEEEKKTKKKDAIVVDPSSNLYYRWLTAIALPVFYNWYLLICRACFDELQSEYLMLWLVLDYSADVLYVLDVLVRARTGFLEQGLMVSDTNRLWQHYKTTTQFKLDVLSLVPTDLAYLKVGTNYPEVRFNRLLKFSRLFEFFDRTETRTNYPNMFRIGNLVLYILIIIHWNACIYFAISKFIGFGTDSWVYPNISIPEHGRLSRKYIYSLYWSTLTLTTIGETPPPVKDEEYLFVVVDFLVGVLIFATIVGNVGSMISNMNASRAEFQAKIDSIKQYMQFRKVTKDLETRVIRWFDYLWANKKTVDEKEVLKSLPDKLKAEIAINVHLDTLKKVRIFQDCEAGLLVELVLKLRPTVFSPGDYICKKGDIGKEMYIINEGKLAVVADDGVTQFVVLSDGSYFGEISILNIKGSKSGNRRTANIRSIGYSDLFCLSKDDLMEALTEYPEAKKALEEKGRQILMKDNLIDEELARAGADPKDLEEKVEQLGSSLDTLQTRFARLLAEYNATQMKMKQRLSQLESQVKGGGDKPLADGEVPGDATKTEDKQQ
Sequence (Q9NQW8 1-809): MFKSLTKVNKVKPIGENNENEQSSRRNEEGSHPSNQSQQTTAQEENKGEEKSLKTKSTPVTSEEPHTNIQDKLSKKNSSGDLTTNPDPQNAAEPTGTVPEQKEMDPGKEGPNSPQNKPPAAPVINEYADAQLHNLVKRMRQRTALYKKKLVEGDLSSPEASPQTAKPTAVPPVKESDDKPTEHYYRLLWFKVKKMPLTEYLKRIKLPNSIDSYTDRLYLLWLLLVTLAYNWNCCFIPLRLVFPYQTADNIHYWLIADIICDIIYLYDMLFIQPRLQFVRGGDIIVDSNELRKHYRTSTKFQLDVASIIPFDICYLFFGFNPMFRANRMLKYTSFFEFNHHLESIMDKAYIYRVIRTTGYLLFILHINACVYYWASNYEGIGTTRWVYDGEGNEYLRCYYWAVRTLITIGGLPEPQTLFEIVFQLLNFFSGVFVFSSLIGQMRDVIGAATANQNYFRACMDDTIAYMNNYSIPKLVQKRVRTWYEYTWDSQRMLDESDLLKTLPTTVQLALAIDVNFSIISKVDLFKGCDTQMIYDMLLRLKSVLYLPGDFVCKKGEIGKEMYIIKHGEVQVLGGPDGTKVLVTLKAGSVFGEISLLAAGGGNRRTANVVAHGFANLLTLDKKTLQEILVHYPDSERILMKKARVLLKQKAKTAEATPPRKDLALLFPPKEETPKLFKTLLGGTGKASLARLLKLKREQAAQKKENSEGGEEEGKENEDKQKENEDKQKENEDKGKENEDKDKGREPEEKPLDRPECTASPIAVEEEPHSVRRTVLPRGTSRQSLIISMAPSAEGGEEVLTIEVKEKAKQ
Assay type: biochemical
Conditions: read-out: K1/2,GMP; time-matched control, 80 min; n = 4-6
measured-attribute: EC50 (µM)
// units = µM; emit number, no label

Assign EC50 to the following record: Nc1nc2c(ncn2[C@@H]2O[C@@H]3COP(=O)(O)O[C@H]3[C@H]2O)c(=O)[nH]1 [cGMP, cyclic guanosine monophosphate]
16.4

----------
molecular target: native rod photoreceptor CNG channels; assay: Inside-out patches excised from Xenopus rod outer segments; type: biochemical, Xenopus laevis; conditions: read-out: K1/2 cGMP (Hill fit); representative control patch, t25 (Fig 11A)
measured-attribute: EC50 (µM)
// units = µM; emit number, no label

Assign EC50 to the following record: Nc1nc2c(ncn2[C@@H]2O[C@@H]3COP(=O)(O)O[C@H]3[C@H]2O)c(=O)[nH]1 [cGMP, cyclic guanosine monophosphate]
28.1

----------
biological target: heteromeric CNGA1 + CNGB1 channels (UniProt Q00194+Q14028); format: biochemical, bovine CNGA1, human CNGB1; settings: read-out: K1/2 cGMP (Hill fit); representative control patch, t40 (Fig 9C)
Sequence (Q00194 whole entry): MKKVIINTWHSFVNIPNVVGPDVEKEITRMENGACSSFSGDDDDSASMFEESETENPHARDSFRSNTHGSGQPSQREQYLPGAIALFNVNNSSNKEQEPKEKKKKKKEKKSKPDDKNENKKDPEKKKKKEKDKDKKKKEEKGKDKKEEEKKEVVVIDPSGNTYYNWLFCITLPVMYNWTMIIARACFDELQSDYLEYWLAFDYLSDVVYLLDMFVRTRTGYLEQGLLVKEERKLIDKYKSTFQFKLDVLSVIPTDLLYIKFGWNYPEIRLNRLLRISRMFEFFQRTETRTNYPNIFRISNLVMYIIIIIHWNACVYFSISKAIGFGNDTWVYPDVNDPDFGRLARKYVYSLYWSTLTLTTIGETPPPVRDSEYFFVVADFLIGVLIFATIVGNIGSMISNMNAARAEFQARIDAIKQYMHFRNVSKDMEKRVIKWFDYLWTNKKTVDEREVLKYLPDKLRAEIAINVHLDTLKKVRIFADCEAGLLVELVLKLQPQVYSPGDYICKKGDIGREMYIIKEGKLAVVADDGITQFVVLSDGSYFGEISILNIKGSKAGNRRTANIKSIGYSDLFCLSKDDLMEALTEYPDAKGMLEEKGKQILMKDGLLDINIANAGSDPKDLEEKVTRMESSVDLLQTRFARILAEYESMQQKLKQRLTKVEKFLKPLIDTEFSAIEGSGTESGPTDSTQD
Sequence (Q14028 whole entry): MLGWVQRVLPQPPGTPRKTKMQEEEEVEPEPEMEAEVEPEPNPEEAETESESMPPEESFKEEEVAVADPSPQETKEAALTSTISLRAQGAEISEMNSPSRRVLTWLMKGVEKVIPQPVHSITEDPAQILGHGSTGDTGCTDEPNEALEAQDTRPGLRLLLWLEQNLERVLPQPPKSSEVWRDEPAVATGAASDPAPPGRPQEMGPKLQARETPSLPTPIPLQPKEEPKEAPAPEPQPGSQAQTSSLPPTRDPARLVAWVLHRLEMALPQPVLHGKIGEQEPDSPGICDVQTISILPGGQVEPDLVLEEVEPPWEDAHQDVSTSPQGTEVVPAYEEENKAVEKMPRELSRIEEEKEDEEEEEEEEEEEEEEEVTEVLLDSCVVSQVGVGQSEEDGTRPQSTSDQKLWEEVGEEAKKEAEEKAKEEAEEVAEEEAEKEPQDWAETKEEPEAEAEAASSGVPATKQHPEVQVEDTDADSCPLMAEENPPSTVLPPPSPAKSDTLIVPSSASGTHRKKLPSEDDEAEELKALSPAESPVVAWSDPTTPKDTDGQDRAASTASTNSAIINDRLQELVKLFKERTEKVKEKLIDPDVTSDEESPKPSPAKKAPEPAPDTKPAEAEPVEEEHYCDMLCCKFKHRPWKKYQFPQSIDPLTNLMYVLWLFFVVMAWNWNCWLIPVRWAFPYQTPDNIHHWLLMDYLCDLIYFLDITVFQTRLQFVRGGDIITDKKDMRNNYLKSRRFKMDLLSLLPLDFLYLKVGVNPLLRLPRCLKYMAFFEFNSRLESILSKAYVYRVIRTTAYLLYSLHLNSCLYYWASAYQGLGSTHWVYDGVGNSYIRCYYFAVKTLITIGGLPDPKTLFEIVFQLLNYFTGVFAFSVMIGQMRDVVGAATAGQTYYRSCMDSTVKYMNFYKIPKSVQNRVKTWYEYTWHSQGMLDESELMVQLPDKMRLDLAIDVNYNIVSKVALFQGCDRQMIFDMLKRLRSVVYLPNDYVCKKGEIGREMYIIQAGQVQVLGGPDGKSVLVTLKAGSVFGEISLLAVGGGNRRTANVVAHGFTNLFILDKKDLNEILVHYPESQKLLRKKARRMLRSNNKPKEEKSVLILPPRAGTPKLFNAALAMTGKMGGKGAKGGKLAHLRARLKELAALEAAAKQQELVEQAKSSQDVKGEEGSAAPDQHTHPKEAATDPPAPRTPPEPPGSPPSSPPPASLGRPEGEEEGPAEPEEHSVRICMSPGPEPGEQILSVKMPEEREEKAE
measured-attribute: EC50 (µM)
// units = µM; emit number, no label

Assign EC50 to the following record: Nc1nc2c(ncn2[C@@H]2O[C@@H]3COP(=O)(O)O[C@H]3[C@H]2O)c(=O)[nH]1 [cGMP, cyclic guanosine monophosphate]
55.6

----------
Molecular target: UniProtKB Q16281
Sequence (Q16281 1-694): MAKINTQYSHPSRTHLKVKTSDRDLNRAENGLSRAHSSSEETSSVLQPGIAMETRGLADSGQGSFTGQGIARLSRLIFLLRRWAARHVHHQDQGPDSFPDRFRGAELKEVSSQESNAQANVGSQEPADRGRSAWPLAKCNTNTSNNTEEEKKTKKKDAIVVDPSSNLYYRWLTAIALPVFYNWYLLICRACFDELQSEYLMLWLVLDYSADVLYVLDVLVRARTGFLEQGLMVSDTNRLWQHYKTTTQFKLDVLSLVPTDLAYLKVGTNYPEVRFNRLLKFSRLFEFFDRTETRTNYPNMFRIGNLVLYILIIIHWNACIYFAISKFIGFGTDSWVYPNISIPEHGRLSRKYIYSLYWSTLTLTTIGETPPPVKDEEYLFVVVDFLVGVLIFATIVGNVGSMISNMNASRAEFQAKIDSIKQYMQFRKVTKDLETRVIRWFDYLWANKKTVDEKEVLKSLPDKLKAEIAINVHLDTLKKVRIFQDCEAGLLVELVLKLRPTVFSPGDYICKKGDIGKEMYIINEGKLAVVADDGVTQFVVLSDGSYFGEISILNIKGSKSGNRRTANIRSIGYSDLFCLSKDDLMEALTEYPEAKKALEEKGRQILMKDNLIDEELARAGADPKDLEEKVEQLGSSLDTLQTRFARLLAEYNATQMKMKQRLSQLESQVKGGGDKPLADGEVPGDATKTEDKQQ
Assay type: biochemical
Settings: read-out: K1/2 cGMP (Hill fit); representative control patch, t60 (Fig 1B)
measured-attribute: pEC50
pEC50 is defined as minus the log10 of a concentration measured in mol/L.

Assign pEC50 to the following record: Nc1nc2c(ncn2[C@@H]2O[C@@H]3COP(=O)(O)O[C@H]3[C@H]2O)c(=O)[nH]1 [cGMP, cyclic guanosine monophosphate]
4.99
